ASSAYED_SYSTEM: UniProt Q8R2Y0
TEST_PROTOCOL: competitive ABPP of Abhd10 versus anti-targets – biochemical, fluorescence, gel-based, mouse proteome, selectivity assay for PME-1 inhibitor project, late-stage follow-up (AID 588807)
SETTINGS: anti-target, at 10 µM, hits give high values
MEASURED_ATTRIBUTE: inhibition (%)

Example results:
>  <CPD_SMILES>
CC[C@@]1(c2ccccc2)C(=O)N(C(=O)OC(C)C)N1C(=O)OC(C)C

>  <UNIT>
%

>  <inhibition>
65

$$$$
>  <CPD_SMILES>
CC[C@@]1(c2ccc(C)cc2)C(=O)N(C(=O)OC(C)C)N1C(=O)OC(C)C

>  <UNIT>
%

>  <inhibition>
50

$$$$
>  <CPD_SMILES>
CC[C@@]1(c2ccccc2C)C(=O)N(C(=O)OC)N1C(=O)OC

>  <UNIT>
%

>  <inhibition>
40

$$$$
>  <CPD_SMILES>
CC[C@@]1(c2cccc(C)c2)C(=O)N(C(=O)OC)N1C(=O)OC

>  <UNIT>
%

>  <inhibition>
50

$$$$
>  <CPD_SMILES>
COC(=O)N1C(=O)[C@](c2ccccc2)(C2CCCC2)N1C(=O)OC

>  <UNIT>
%

>  <inhibition>
0

$$$$

1: CC[C@@]1(c2cccc(OC)c2)C(=O)N(C(=O)OC(C)C)N1C(=O)OC(C)C
2: CC[C@@]1(c2ccc(Cl)c(Cl)c2)C(=O)N(C(=O)OC)N1C(=O)OC
3: CC[C@@]1(c2ccc(Cl)cc2)C(=O)N(C(=O)OC)N1C(=O)OC
4: CC[C@@]1(c2ccc(OC)cc2)C(=O)N(C(=O)OC(C)C)N1C(=O)OC(C)C
// query Please list the entries, largest inhibition first. Provide your answer as the labels ordered per the instruction.
// result 3, 1, 4, 2

###

ASSAYED_SYSTEM: Palmitoyl-protein thioesterase ABHD10, mitochondrial (Mus musculus)
TEST_PROTOCOL: competitive ABPP of Abhd10 versus anti-targets – biochemical, fluorescence, gel-based, mouse proteome, selectivity assay for PME-1 inhibitor project, late-stage follow-up (AID 588807)
SETTINGS: at 10 µM, hits give high values
MEASURED_ATTRIBUTE: inhibition (%)

Observe how each entry below is paired with its result.
>  <COMPOUND>
CC[C@@]1(c2ccccc2)C(=O)N(C(=O)OC(C)C)N1C(=O)OC(C)C

>  <UNIT>
%

>  <RESULT>
100

$$$$
>  <COMPOUND>
CC[C@@]1(c2cccc(F)c2)C(=O)N(C(=O)OC(C)C)N1C(=O)OC(C)C

>  <UNIT>
%

>  <RESULT>
90

$$$$
>  <COMPOUND>
CC[C@@]1(c2ccc(C)cc2)C(=O)N(C(=O)OC(C)C)N1C(=O)OC(C)C

>  <UNIT>
%

>  <RESULT>
95

$$$$

a: CC[C@]1(c2cccc(C)c2)C(=O)N(C(=O)OC)N1C(=O)OC
b: CC[C@]1(c2ccc(C)cc2)C(=O)N(C(=O)OC(C)C)N1C(=O)OC(C)C
c: Cc1cccc([C@]2(C)C(=O)N(C(=O)OCc3ccccc3)N2C(=O)OCc2ccccc2)c1
// query Arrange by inhibition, high to low. Ranked list of labels, please, in the requested order.
// result a, b, c
(a: 85%, b: 45%, c: 15%)

###

ASSAYED_SYSTEM: Monoacylglycerol lipase ABHD6 (Mus musculus) (UniProt Q8R2Y0)
Sequence (Q8R2Y0 whole entry, looked up): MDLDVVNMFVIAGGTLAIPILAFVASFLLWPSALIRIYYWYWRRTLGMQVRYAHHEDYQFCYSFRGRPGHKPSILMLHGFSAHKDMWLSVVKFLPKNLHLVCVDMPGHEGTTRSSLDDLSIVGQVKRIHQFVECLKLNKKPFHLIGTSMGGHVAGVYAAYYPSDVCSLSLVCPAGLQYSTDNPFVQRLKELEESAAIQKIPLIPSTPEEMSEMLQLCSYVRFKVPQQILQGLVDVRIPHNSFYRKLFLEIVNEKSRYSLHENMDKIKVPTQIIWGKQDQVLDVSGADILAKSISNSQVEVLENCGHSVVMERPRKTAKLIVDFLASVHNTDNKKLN
TEST_PROTOCOL: competitive ABPP of Abhd10 versus anti-targets – biochemical, fluorescence, gel-based, mouse proteome, selectivity assay for PME-1 inhibitor project, late-stage follow-up (AID 588807)
SETTINGS: anti-target, at 10 µM, hits give high values
MEASURED_ATTRIBUTE: inhibition (%)

>  <CPD_SMILES>
CC[C@@]1(c2cccc(F)c2)C(=O)N(C(=O)OC)N1C(=O)OC

>  <ASSAYED_SYSTEM>
Monoacylglycerol lipase ABHD6 (Mus musculus) (UniProt Q8R2Y0)

>  <RESULT>
25

$$$$
>  <CPD_SMILES>
CC[C@@]1(c2cccc(C)c2)C(=O)N(C(=O)OCc2ccccc2)N1C(=O)OCc1ccccc1

>  <ASSAYED_SYSTEM>
Monoacylglycerol lipase ABHD6 (Mus musculus) (UniProt Q8R2Y0)

>  <RESULT>
35

$$$$
>  <CPD_SMILES>
CC[C@@]1(c2cccc(F)c2)C(=O)N(C(=O)OC(C)C)N1C(=O)OC(C)C

>  <ASSAYED_SYSTEM>
Monoacylglycerol lipase ABHD6 (Mus musculus) (UniProt Q8R2Y0)

>  <RESULT>
0

$$$$

a: CC[C@@]1(c2ccc(C)cc2)C(=O)N(C(=O)OC)N1C(=O)OC
b: CCOC(=O)N1C(=O)[C@@](CC)(c2ccccc2)N1C(=O)OCC
c: Cc1cccc([C@]2(C)C(=O)N(C(=O)OC(C)C)N2C(=O)OC(C)C)c1
// query Your job: order these 3 records by inhibition, ascending. Could you list the labels in the order requested?
// result c, a, b
(c: 0%, a: 25%, b: 65%)

A: CC[C@@]1(c2ccc(Cl)c(Cl)c2)C(=O)N(C(=O)OC(C)C)N1C(=O)OC(C)C
B: C=CCOC(=O)N1C(=O)[C@@](CC)(c2ccccc2)N1C(=O)OC
C: CC[C@@]1(c2cccc(C)c2)C(=O)N(C(=O)OC(C)(C)C)N1C(=O)OC(C)(C)C
// query Please rank these molecules by inhibition in descending order. Lab note: final answer is the ordered label list.
// result A, B, C
(A: 50%, B: 35%, C: 10%)

###

ASSAYED_SYSTEM: Monoacylglycerol lipase ABHD6 (Mus musculus) (UniProt Q8R2Y0)
TEST_PROTOCOL: competitive ABPP of Abhd10 versus anti-targets – biochemical, fluorescence, gel-based, mouse proteome, selectivity assay for PME-1 inhibitor project, late-stage follow-up (AID 588807)
SETTINGS: anti-target, at 10 µM, hits give high values
MEASURED_ATTRIBUTE: inhibition (%)

Below, 6 molecules whose answers are already recorded.
>  <CPD_SMILES>
CC[C@@]1(c2cccc(C)c2)C(=O)N(C(=O)OC(C)C)N1C(=O)OC

>  <UNIT>
%

>  <inhibition>
0

$$$$
>  <CPD_SMILES>
CC[C@]1(c2cccc(C)c2)C(=O)N(C(=O)OC)N1C(=O)OC

>  <UNIT>
%

>  <inhibition>
0

$$$$
>  <CPD_SMILES>
CC[C@@]1(c2cccc(C)c2)C(=O)N(C(=O)OCC(Cl)(Cl)Cl)N1C(=O)OCC(Cl)(Cl)Cl

>  <UNIT>
%

>  <inhibition>
0

$$$$
>  <CPD_SMILES>
C=CCOC(=O)N1C(=O)[C@@](CC)(c2ccc(C)cc2)N1C(=O)OCC=C

>  <UNIT>
%

>  <inhibition>
75

$$$$
>  <CPD_SMILES>
Cc1cccc([C@]2(C)C(=O)N(C(=O)OCc3ccccc3)N2C(=O)OCc2ccccc2)c1

>  <UNIT>
%

>  <inhibition>
0

$$$$
>  <CPD_SMILES>
CCOC(=O)N1C(=O)[C@@](CC)(c2ccc(C)cc2)N1C(=O)OCC

>  <UNIT>
%

>  <inhibition>
55

$$$$

A: CCC[C@@]1(c2cccc(C)c2)C(=O)N(C(=O)OC)N1C(=O)OC
B: CC[C@@]1(c2cccc(C)c2)C(=O)N(C(=O)OC(C)C)N1C(=O)OC(C)C
C: CC[C@@]1(c2ccc(OC)cc2)C(=O)N(C(=O)OC)N1C(=O)OC
// query Please put the entries in order of rising inhibition. Order the labels as requested and list them.
// result A, C, B

###

ASSAYED_SYSTEM: Prolyl endopeptidase (Mus musculus) (UniProt Q9QUR6)
Sequence (Q9QUR6 whole entry, looked up): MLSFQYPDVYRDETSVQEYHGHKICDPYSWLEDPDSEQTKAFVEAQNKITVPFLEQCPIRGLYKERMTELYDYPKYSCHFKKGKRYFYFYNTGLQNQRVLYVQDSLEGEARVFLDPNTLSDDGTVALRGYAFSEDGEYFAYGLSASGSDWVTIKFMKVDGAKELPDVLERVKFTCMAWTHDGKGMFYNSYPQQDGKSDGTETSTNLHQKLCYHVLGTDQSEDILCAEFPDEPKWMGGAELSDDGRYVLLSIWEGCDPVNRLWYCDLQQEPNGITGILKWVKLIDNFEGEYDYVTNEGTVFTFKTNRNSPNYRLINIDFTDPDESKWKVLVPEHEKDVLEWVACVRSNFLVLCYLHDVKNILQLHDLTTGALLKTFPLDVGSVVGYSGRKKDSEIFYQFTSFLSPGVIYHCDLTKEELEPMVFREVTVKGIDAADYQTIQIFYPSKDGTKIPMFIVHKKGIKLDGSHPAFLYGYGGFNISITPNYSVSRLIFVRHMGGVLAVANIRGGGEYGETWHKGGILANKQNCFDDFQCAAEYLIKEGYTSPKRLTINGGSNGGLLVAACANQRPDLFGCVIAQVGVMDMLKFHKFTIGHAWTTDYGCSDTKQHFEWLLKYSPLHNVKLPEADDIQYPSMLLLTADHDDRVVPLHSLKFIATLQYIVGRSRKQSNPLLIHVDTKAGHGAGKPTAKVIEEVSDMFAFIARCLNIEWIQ
TEST_PROTOCOL: competitive ABPP of Abhd10 versus anti-targets – biochemical, fluorescence, gel-based, mouse proteome, selectivity assay for PME-1 inhibitor project, late-stage follow-up (AID 588807)
SETTINGS: PREP, anti-target, at 10 µM, hits give high values
MEASURED_ATTRIBUTE: inhibition (%)

Look over these answered cases.
>  <CPD_SMILES>
Cc1cccc([C@]2(C)C(=O)N(C(=O)OCc3ccccc3)N2C(=O)OCc2ccccc2)c1

>  <MEASURED_ATTRIBUTE>
inhibition

>  <RESULT>
0

$$$$
>  <CPD_SMILES>
CC[C@@]1(c2cccc(F)c2)C(=O)N(C(=O)OC(C)C)N1C(=O)OC(C)C

>  <MEASURED_ATTRIBUTE>
inhibition

>  <RESULT>
0

$$$$
>  <CPD_SMILES>
C=CCOC(=O)N1N(C(=O)OC)C(=O)[C@@]1(CC)c1ccccc1

>  <MEASURED_ATTRIBUTE>
inhibition

>  <RESULT>
55

$$$$

P: C=CCOC(=O)N1C(=O)[C@@](CC)(c2ccc(C)cc2)N1C(=O)OCC=C
Q: CC[C@@]1(c2cccc(OC)c2)C(=O)N(C(=O)OC(C)C)N1C(=O)OC(C)C
// query Which item exceeds the other in inhibition, P or Q ? Give the label of your selection.
// result P
